# systemTested: SARS-COV-2 RBD-MMH (SARS-COV-2 RBD extracellular domain with C-terminal myc-myc-hexahistidine tag) (SARS-CoV-2)
koff for assorted binders
Entry rule: numbers only, all in s⁻¹.

Solved cases below.
| binder | experimentalReadout | measuredValue |
| --- | --- | --- |
| mAb15150 (antibody, V domains shown) VH: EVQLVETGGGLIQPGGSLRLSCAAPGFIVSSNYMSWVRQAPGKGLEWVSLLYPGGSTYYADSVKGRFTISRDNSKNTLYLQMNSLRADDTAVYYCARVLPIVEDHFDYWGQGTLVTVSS VL: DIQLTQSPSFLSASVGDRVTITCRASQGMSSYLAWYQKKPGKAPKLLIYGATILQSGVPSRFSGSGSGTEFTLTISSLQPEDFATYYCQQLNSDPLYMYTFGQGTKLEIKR | koff | 3.81e-05 |
| mAb15165 (antibody, V domains shown) VH: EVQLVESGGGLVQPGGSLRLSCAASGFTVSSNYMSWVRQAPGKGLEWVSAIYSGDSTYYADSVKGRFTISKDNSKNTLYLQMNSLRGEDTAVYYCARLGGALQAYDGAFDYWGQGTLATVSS VL: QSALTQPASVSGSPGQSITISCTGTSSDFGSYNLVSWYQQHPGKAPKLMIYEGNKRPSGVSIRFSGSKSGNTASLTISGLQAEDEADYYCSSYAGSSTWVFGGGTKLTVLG | koff | 0.00128 |
| mAb14286 (antibody, V domains shown) VH: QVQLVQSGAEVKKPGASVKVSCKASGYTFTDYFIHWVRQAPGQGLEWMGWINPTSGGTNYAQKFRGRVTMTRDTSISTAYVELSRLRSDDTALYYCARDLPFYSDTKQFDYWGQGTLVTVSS VL: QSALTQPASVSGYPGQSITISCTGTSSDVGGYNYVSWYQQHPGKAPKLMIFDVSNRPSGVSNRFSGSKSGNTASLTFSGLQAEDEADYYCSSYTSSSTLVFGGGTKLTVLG | koff | 0.00999 |

binder mAb14294 (antibody, V domains shown) VH: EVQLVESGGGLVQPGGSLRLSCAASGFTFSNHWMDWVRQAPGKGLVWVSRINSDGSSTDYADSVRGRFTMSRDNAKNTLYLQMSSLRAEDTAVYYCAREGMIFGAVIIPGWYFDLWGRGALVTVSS VL: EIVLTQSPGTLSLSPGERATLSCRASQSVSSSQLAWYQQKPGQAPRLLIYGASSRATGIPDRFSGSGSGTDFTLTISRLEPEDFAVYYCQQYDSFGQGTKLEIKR , koff observed: 0.000565

// field: koff; key: mAb15158 (antibody, V domains shown) VH: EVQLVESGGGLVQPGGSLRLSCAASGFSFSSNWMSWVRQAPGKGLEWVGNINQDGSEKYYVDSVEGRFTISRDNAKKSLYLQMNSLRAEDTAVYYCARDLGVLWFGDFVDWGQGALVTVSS VL: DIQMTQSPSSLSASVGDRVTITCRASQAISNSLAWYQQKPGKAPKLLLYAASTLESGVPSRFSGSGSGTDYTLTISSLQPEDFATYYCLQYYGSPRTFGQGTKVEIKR ; value = 0.00029

Looking up mAb14289 (antibody, V domains shown) VH: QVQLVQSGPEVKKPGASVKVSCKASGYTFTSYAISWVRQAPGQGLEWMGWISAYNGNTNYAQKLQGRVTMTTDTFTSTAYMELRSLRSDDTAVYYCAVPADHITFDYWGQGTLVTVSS VL: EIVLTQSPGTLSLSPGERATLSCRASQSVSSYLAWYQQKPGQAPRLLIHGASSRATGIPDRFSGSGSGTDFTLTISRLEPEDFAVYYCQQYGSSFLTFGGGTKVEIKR , I see its koff listed as 0.00272

Reported koff of mAb14284 (antibody, V domains shown) VH: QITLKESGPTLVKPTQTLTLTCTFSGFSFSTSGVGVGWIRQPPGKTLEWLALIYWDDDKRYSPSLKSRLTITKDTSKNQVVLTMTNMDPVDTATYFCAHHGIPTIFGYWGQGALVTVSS VL: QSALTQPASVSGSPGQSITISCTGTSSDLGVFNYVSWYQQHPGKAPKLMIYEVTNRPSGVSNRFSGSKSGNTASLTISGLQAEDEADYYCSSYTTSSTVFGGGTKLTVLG : 0.000574

get_value(item= mAb14255 (antibody, V domains shown) VH: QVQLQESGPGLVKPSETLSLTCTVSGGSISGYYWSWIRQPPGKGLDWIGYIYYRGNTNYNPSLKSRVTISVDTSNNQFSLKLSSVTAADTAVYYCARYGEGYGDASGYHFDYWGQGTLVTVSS VL: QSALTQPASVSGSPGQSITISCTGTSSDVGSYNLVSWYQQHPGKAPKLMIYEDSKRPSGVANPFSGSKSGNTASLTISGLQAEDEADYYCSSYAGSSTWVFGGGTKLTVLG , readout=koff) returns 0.00513

Form: binder = mAb15162 (antibody, V domains shown) VH: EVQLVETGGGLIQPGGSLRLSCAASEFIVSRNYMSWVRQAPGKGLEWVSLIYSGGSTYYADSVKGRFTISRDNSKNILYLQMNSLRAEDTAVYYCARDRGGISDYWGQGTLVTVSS VL: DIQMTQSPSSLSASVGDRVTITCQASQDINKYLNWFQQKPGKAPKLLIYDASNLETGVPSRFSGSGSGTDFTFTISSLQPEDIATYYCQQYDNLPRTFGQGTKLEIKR ; koff = 0.00354

Consider mAb13458 (antibody, V domains shown) VH: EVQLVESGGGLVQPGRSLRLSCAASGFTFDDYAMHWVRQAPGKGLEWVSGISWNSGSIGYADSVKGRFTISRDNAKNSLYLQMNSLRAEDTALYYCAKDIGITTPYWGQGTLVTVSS VL: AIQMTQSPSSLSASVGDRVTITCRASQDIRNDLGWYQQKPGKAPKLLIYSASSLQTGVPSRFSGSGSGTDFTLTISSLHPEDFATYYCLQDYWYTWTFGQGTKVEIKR . Its measured koff is 0.00199

Origin of measurements: patent US20260069689A1
